meta.source: PubChem BioAssay (NCATS)

# test_details: Validation screen for inhibitors of Lassa infection (AID 463096)
# particulars: Lassa virus infection, cell-based; series mostly up to 46.1 µM
Inconclusive results are not listed. Active and inactive are the calls of the source. Calls follow the shape of the full dose curve.
Form entry, call: pick from yes (1) = active, no (0) = inactive

Use these answered entries as a reference point.
In this assay, the call recorded for COc1ccccc1N1CCN(CCCCNC(=O)c2ccc3ccccc3c2)CC1 was what? yes (1)

Same thing, different compound: O=[N+]([O-])c1cccc2c(Br)[nH]nc12 no (0)

Same thing, different compound: CCCCCC(O)c1cccc(OCc2ccc3ccccc3n2)c1 (stereo unspecified) no (0)

Continuing:
In this assay, the call recorded for N=C(N)SCCc1cnc[nH]1 was what? no (0)

Same thing, different compound: CN1CCc2ccccc2Cc2[nH]c3ccccc3c2CC1 no (0)

Same thing, different compound: O=C(O)/C=C/C(O)c1ccc(Cl)cc1 (stereo unspecified) no (0)

Same thing, different compound: CCCCCCCCCCCCCCC[C@H](O)[C@H](N)CO no (0)

Same thing, different compound: C[C@H](Cc1ccc(O)c(O)c1)[C@@H](C)Cc1ccc(O)c(O)c1 no (0)

Same thing, different compound: Cn1cc(C(=O)OCC2CCN(CCNS(C)(=O)=O)CC2)c2ccccc21 no (0)

Same thing, different compound: CN1CCN2c3ccccc3Cc3ccccc3C2C1 (stereo unspecified) no (0)

Same thing, different compound: COc1cccc(OC)c1OCCNCC1CSc2ccccc2O1 (stereo unspecified) no (0)

Same thing, different compound: Nc1nc2[nH]c(=O)cnc2c(=O)[nH]1 no (0)
